All figures here come from the supplement of paper PMC11246515.

- ASSAY_OVERVIEW: total protein half-life in vivo (active degradation + dilution); higher = more stable protein
- EXPERIMENTAL_SETUP: E. coli NCM3722 delta-hslV; growth: N-lim chemostat; doubling time 6 h
Below, each entry is listed alongside its reported total protein half-life in vivo.
Numbers only; they are read as h.

Below are worked cases with known answers.
>>> test_result("MFNSDNLRLDGKCAIITGAGAGIGKEIAITFATAGASVVVSDINADAANHVVDEIQQLGGQAFACRCDITSEQELSALADFAISKLGKVDILVNNAGGGGPKPFDMPMADFRRAYELNVFSFFHLSQLVAPEMEKNGGGVILTITSMAAENKNINMTSYASSKAAASHLVRNMAFDLGEKNIRVNGIAPGAILTDALKSVITPEIEQKMLQHTPIRRLGQPQDIANAALFLCSPAASWVSGQILTVSGGGVQELN [P0AET8]")
4.72
>>> test_result("MPVRAQRIQHVMQDTIINFYSTSDDYGDFSNFAAWPIKVDGKTWPTSEHYFQAQKFLDEKYREEIRRVSSPMVAARMGRDRSKPLRKNWESVKEQVMRKALRAKFEQHAELRALLLATAPAKLVEHTENDAYWGDGGHGKGKNRLGYLLMELREQLAIEK")
4.25

Let's switch to this sequence now.
Query block: Need total protein half-life in vivo, item MKKTAIAIAVALAGFATVAQAAPKDNTWYTGAKLGWSQYHDTGFINNNGPTHENQLGAGAFGGYQVNPYVGFEMGYDWLGRMPYKGSVENGAYKAQGVQLTAKLGYPITDDLDIYTRLGGMVWRADTKSNVYGKNHDTGVSPVFAGGVEYAITPEIATRLEYQWTNNIGDAHTIGTRPDNGMLSLGVSYRFGQGEAAPVVAPAPAPAPEVQTKHFTLKSDVLFNFNKATLKPEGQAALDQLYSQLSNLDPKDGSVVVLGYTDRIGSDAYNQGLSERRAQSVVDYLISKGIPADKISARGMGESNPVTGNTCDNVKQRAALIDCLAPDRRVEIEVKGIKDVVTQPQA [P0A910]
Result block: 6.86

---

Reported values of total protein half-life in vivo for individual entries
- ASSAY_OVERVIEW: total protein half-life in vivo (active degradation + dilution); higher = more stable protein
- EXPERIMENTAL_SETUP: wild type E. coli NCM3722; growth: C-lim chemostat; doubling time 6 h
Provide only the numeric value, understood in h.

Here is how some sequences turned out for total protein half-life in vivo.
>>> test_result("MSESLSWMQTGDTLALSGELDQDVLLPLWEMREEAVKGITCIDLSRVSRVDTGGLALLLHLIDLAKKQGNNVTLQGVNDKVYTLAKLYNLPADVLPR")
5.39
>>> test_result("MRIFVYGSLRHKQGNSHWMTNAQLLGDFSIDNYQLYSLGHYPGAVPGNGTVHGEVYRIDNATLAELDALRTRGGEYARQLIQTPYGSAWMYVYQRPVDGLKLIESGDWLDRDK [P0AE48]")
5.32
>>> test_result("MSAKHPVIAVTGSSGAGTTTTSLAFRKIFAQLNLHAAEVEGDSFHRYTRPEMDMAIRKARDAGRHISYFGPEANDFGLLEQTFIEYGQSGKGKSRKYLHTYDEAVPWNQVPGTFTPWQPLPEPTDVLFYEGLHGGVVTPQHNVAQHVDLLVGVVPIVNLEWIQKLIRDTSERGHSREAVMDSVVRSMEDYINYITPQFSRTHLNFQRVPTVDTSNPFAAKGIPSLDESFVVIHFRNLEGIDFPWLLAMLQGSFISHINTLVVPGGKMGLAMELIMLPLVQRLMEGKKIE [P0AEX5]")
5.5
>>> test_result("MTKTLLDGPGRVLESVYPRFLVDLAQGDDARLPQAHQQQFRERLMQELLSRVQLQTWTNGGMLNAPLSLRLTLVEKLASMLDPGHLALTQIAQHLALLQKMDHRQHSAFPELPQQIAALYEWFSARCRWKEKALTQRGLLVQAGDQSEQIFTRWRAGAYNAWSLPGRCFIVLEELRWGAFGDACRLGSPQAVALLLGDLLEKATQHLAESINAAPTTRHYYHQWFASSTVPTGGEHADFLSWLGKWTTADKQPVCWSVTQRWQTVALGMPRLCSAQRLAGAMLEEIFSVNLA")
5.83
>>> test_result("MKLFAQGTSLDLSHPHVMGILNVTPDSFSDGGTHNSLIDAVKHANLMINAGATIIDVGGESTRPGAAEVSVEEELQRVIPVVEAIAQRFEVWISVDTSKPEVIRESAKVGAHIINDIRSLSEPGALEAAAETGLPVCLMHMQGNPKTMQEAPKYDDVFAEVNRYFIEQIARCEQAGIAKEKLLLDPGFGFGKNLSHNYSLLARLAEFHHFNLPLLVGMSRKSMIGQLLNVGPSERLSGSLACAVIAAMQGAHIIRVHDVKETVEAMRVVEATLSAKENKRYE [P0AC13]")
4.48

Query block: Name the reported total protein half-life in vivo value associated with the sequence "MHLSTHPTSYPTRYQEIAAKLEQELRQHYRCGDYLPAEQQLAARFEVNRHTLRRAIDQLVEKGWVQRRQGVGVLVLMRPFDYPLNAQARFSQNLLDQGSHPTSEKLLSVLRPASGHVADALGITEGENVIHLRTLRRVNGVALCLIDHYFADLTLWPTLQRFDSGSLHDFLREQTGIALRRSQTRISARRAQAKECQRLEIPNMSPLLCVRTLNHRDGESSPAEYSVSLTRADMIEFTMEH"
Result block: 6.73

Query block: So what's the measured total protein half-life in vivo for this one? "MSRFIPIELHHASRLLNHGPTVLITSFDEQSQRRNIMAAAWSMPVEFEPPRVAIVVDKSTWTRELIEHNGKFGIVIPGVAATNWTWAVGSVSGRDEDKFNCYGIPVVRGPVFGLPLVEEKCLAWMECRLLPATSAQEEYDTLFGEVVSAAADARVFVEGRWQFDDDKLNTLHHLGAGTFVTSGKRVTAG"
Result block: 4.15

Query block: I am curious: what total protein half-life in vivo value has been reported for MKKFAAVIAVMALCSAPVMAAEQGGFSGPSATQSQAGGFQGPNGSVTTVESAKSLRDDTWVTLRGNIVERISDDLYVFKDASGTINVDIDHKRWNGVTVTPKDTVEIQGEVDKDWNSVEIDVKQIRKVNP [P0ADU5] ?
Result block: 5.83

Query block: Using the record for MIIIRYLVRETLKSQLAILFILLLIFFCQKLVRILGAAVDGDIPANLVLSLLGLGVPEMAQLILPLSLFLGLLMTLGKLYTESEITVMHACGLSKAVLVKAAMILAVFTAIVAAVNVMWAGPWSSRHQDEVLAEAKANPGMAALAQGQFQQATNGSSVLFIESVDGSDFKDVFLAQIRPKGNARPSVVVADSGHLTQLRDGSQVVTLNQGTRFEGTALLRDFRITDFQDYQAIIGHQAVALDPNDTDQMDMRTLWNTDTDRARAELNWRITLVFTVFMMALMVVPLSVVNPRQGRVLSMLPAMLLYLLFFLIQTSLKSNGGKGKLDPTLWMWTVNLIYLALAIVLNLWDTVPVRRLRASFSRKGAV [P0AF98] , report its total protein half-life in vivo.
Result block: 5.94

Query block: Could you share which total protein half-life in vivo value was measured for "MNTPAQLSLPLYLPDDETFASFWPGDNSSLLAALQNVLRQEHSGYIYLWAREGAGRSHLLHAACAELSQRGDAVGYVPLDKRTWFVPEVLDGMEHLSLVCIDNIECIAGDELWEMAIFDLYNRILESGKTRLLITGDRPPRQLNLGLPDLASRLDWGQIYKLQPLSDEDKLQALQLRARLRGFELPEDVGRFLLKRLDREMRTLFMTLDQLDRASITAQRKLTIPFVKEILKL" ?
Result block: 5.7

Query block: Need total protein half-life in vivo, item "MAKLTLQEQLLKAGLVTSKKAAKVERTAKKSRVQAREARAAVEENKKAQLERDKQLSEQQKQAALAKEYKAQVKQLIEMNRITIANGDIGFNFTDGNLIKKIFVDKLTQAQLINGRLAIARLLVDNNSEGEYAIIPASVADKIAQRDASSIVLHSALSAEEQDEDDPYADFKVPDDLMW"
Result block: 3.23

Query block: I am curious: what total protein half-life in vivo value has been reported for "MFQQQKDWETRENAFAAFTMGPLTDFWRQRDEAEFTGVDDIPVRFVRFRAQHHDRVVVICPGRIESYVKYAELAYDLFHLGFDVLIIDHRGQGRSGRLLADPHLGHVNRFNDYVDDLAAFWQQEVQPGPWRKRYILAHSMGGAISTLFLQRHPGVCDAIALTAPMFGIVIRMPSFMARQILNWAEAHPRFRDGYAIGTGRWRALPFAINVLTHSRQRYRRNLRFYADDPTIRVGGPTYHWVRESILAGEQVLAGAGDDATPTLLLQAEEERVVDNRMHDRFCELRTAAGHPVEGGRPLVIKGAYHEILFEKDAMRSVALHAIVDFFNRHNSPSGNRSTEV" ?
Result block: 6.52
